Data provenance: PubChem BioAssay AID2018

molecular target: SUMO-conjugating enzyme UBC9 (Homo sapiens) (UniProt P63279); experiment: blockers of UBC9-mediated SUMO conjugation – biochemical, AlphaScreen, SUMOylation inhibitor project, confirmation (AID 2018); details: AlphaScreen in vitro SUMOylation assay; at 35 µM
Sequence (P63279 whole entry, looked up): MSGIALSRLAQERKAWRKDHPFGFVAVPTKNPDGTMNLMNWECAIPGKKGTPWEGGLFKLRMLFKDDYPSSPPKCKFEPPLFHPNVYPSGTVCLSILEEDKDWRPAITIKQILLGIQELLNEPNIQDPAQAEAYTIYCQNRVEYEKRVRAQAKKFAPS
In all, about 1,200 compounds went through this assay and about 600 (50%) were called active. Rule as the data show it: active = inhibition above about 42%; inactive = the rest. So high a share suggests a set chosen from earlier hits. This is one part of the list. Results with a measured potency or affinity are listed apart.
Possible outcomes: label 1 for active, label 0 for inactive

Compound | Group
CCN(CC)Cc1c(O)ccc2c(=O)c(Oc3ccccc3OC)coc12 | label 0
C/C(=C\C(=O)c1ccccc1)Nc1ccc(O)cc1 | label 0
Cc1cc(C)c(S(=O)(=O)Nc2cc(SCC(=O)O)c(O)c3ccccc23)cc1C | label 1
O=C(O)CSc1cc(C(=O)c2cc(F)ccc2O)cn2c(=O)c3c(-c4ccccc4)csc3nc12 | label 1
CC1=NN(c2ccccc2)C(=O)C1 | label 1
Cc1ccc2cc(C(c3nnnn3C(C)(C)C)N3CCCCCC3)c(=O)[nH]c2c1 (stereo unspecified) | label 0
COCCNC(=O)c1c(N)n(CCC2=CCCCC2)c2nc3ccccc3nc12 | label 0
O=c1oc(-c2cccs2)nc2sc3c(c12)CCC3 | label 0
Cc1ccc(-c2nc3cc(N)ccc3o2)cc1 | label 0
O=C(O)/C=C/C(=O)Nc1ccc(O)cc1 | label 0
CCN(CC)C(=O)COc1ccc2oc(-c3ccco3)cc(=O)c2c1 | label 0
O=C1c2nc3cc(-c4ccco4)[nH]n3c(=O)c2CN1C1CCCCC1 | label 0
Cc1c(N2C(=O)c3ccc4c5c(ccc(c35)C2=O)CC4)c(=O)n(-c2ccccc2)n1C | label 1
COc1ccc(-n2nc3cc(C)c(N)c(Br)c3n2)cc1 | label 0
CC(C)CC(=O)Nc1ccc2oc(-c3cccnc3)nc2c1 | label 0
O=C(Nc1ccccc1)c1ccccc1CCc1ccccc1 | label 0
O=S(=O)(c1ccc2nc(-c3ccco3)c(-c3ccco3)nc2c1)N1CCOCC1 | label 1
Cc1ccc(C)c(S(=O)(=O)Nc2cc(SCC(=O)O)c(O)c3ccccc23)c1 | label 1
Cc1cccn2cc(-c3ccc(S(=O)(=O)N4CCOCC4)cc3)nc12 | label 0
Cc1ccc(C)c(S(=O)(=O)Nc2ccc(O)c3ccccc23)c1 | label 0
COCCn1c(N)c(C(=O)NCc2cccs2)c2nc3ccccc3nc21 | label 0
